- MEASUREMENT_TARGET: human-mouse chimeric EL (construct not specified)
- EXPERIMENT_NOTES: cell-based or functional assay
Rule: Neutralizing activity IC50 below 2 nM gives fulfilled. Equal to or above 2 nM gives not fulfilled.

Input 14E1 (antibody, mouse IgG1, V domains shown, mouse IgG1 from hybridoma) VH: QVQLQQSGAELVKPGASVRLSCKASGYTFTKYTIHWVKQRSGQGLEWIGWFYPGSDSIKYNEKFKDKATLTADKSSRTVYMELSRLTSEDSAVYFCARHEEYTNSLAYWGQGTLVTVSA VL: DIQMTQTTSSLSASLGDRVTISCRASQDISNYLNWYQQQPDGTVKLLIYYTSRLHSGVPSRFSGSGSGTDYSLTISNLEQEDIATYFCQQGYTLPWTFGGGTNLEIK ; condition: Neutralizing activity IC50 strictly below 2 nM. Does it hold?
fulfilled

Strictly below 2 nM: is that where Neutralizing activity IC50 of 16B3 (antibody, mouse IgG2a, V domains shown, mouse IgG2a from hybridoma; also called 16B3 (mouse mAb)) VH: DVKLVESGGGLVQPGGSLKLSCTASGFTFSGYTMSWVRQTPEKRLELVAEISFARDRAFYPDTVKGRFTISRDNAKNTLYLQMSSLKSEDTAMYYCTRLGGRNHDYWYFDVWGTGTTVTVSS VL: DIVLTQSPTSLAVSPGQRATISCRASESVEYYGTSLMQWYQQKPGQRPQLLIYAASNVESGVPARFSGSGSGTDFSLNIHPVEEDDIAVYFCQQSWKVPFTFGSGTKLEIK sits?
fulfilled

Does this binder meet the criterion Neutralizing activity IC50 < 2 nM? 53A11 (antibody, mouse IgG2a, V domains shown, mouse IgG2a from hybridoma; also called 53A11 (mouse mAb)) VH: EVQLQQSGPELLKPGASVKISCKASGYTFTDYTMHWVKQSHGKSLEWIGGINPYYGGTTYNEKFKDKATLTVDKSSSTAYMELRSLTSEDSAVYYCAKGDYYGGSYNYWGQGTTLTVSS VL: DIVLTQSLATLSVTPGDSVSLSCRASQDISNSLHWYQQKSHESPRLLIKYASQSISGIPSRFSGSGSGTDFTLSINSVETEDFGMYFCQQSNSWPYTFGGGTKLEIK
not fulfilled

Quick check: does 55A1 (antibody, mouse IgG2a, V domains shown, mouse IgG2a from hybridoma; also called 55A1 (mouse mAb)) VH: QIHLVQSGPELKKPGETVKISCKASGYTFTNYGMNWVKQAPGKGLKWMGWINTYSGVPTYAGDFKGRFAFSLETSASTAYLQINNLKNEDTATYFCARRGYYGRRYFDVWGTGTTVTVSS VL: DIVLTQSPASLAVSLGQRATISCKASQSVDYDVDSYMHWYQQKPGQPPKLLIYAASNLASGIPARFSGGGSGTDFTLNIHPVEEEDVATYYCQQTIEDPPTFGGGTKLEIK have Neutralizing activity IC50 under 2 nM?
fulfilled

Would you kindly verify if Neutralizing activity IC50 of 13B3 (antibody, mouse IgG2a, V domains shown, mouse IgG2a from hybridoma; also called 13B3 (mouse mAb)) VH: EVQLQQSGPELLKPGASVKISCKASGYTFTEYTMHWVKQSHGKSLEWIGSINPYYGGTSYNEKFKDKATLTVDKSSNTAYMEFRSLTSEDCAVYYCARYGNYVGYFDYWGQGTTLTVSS VL: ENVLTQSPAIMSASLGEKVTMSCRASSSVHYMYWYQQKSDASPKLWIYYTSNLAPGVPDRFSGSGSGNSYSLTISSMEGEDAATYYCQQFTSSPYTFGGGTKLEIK is strictly less than 2 nM?
not fulfilled
